Reported Population Fragmented Nuclei (%) values for the following molecules.
- System: HEK-293T
- Experiment description: Multiplex assay against HEK293T
- Format: toxicity, cell-based
- Cond: human, 48 h, 1 µM, compound concentration 1 uM, replicate 1
Number only, in %; omit the unit.

• CN1CCN(c2ccc(Nc3c4ccccc4nc4ccccc34)cc2)CC1.Cl.Cl.O = 11
• COc1c(Nc2ccc(S(C)(=O)=O)nc2C)ncnc1OC1CCN(C(=O)OC(C)C)CC1 [ADP-597] = 13
• Cc1cc(-c2ccc3c(c2)CC[C@H]3N2CC3(CCN(C(=O)Cc4cn5cc(C)sc5n4)CC3)C2)ncn1 [PF-5190457] = 14

Tell me reported Population Fragmented Nuclei (%) for O=C(O)CCC/C=C\CC1C(O)CC(O)C1/C=C/C(O)COc1cccc(Cl)c1 (centres undefined) [CLOPROSTENOL] , tested with HEK-293T.
15

So what Population Fragmented Nuclei (%) did CC(C)(C)c1ccc(CSc2cnn(C(C)(C)C)c(=O)c2Cl)cc1 [PYRIDABEN] get with HEK-293T?
11

Quick check: Population Fragmented Nuclei (%) on HEK-293T, item CCCCC[C@H](O)/C=C/[C@H]1[C@H](O)CC(=O)[C@@H]1CCCCCCC(=O)O [ALPROSTADIL] ?
13

Write down the reported Population Fragmented Nuclei (%) of Cc1cc(NC(=O)NCCN2CCC(O)(Cc3ccccc3)CC2)c2ccccc2n1 [PALOSURAN] , test system: HEK-293T.
15

Population Fragmented Nuclei (%) of O=c1nc2[nH]c3ccccc3nc-2c(=O)[nH]1 [ALLOXAZINE] on HEK-293T?
14

Form: Entry = Cc1c(Cc2ccc3ccccc3n2)c2cc(F)ccc2n1CC(=O)O [TIMAPIPRANT] | System = HEK-293T | Population Fragmented Nuclei (%) = ____
13

* * *

- Tested on: HEK-293T
- Experiment description: Multiplex assay against HEK293T
- Assay type: toxicity, cell-based
- Cond: human, 48 h, 10 µM, compound concentration 10 uM, replicate 1
Decide using Population Apoptotic (%): a value greater than or equal to 50% is Criterion met, a smaller one is Criterion not met.

Below, 3 compounds whose answers are already recorded.
- CN1CCC(C(=O)c2cccc(NC(=O)c3c(F)cc(F)cc3F)n2)CC1: Criterion not met
- COc1ccc2c(c1OCc1ccccc1)C[C@@H](C(=O)O)N(C(=O)C(c1ccccc1)c1ccccc1)C2: Criterion not met
- CN1CCN(c2ccc(Nc3c4ccccc4nc4ccccc34)cc2)CC1.Cl.Cl.O: Criterion met

For this compound, is measured Population Apoptotic (%) 50% or higher? COc1cc(Nc2ncc3c(n2)-c2ccc(Cl)cc2C(c2c(F)cccc2OC)=NC3)ccc1C(=O)O
Criterion not met

Test whether the compound CN(C)C(=O)Cn1cc(-c2ccc(-c3nnc4ccccn34)cc2)cn1 records Population Apoptotic (%) of 50% or higher.
Criterion not met

Hello, I need to know if COc1cc(OC2CCN(C(C)=O)CC2)ccc1C(=O)N1CCC(N2C(=O)OCc3ccccc32)CC1 has measured Population Apoptotic (%) not below 50%. Thanks!
Criterion not met

Given S=C(NCCCc1c[nH]cn1)NCCCN(Cc1ccc(Cl)c(Cl)c1)c1ccc(Br)cn1 , state whether its Population Apoptotic (%) is at least 50%.
Criterion met

Is Population Apoptotic (%) for COCCn1c(C)c(C)s/c1=N\C(=O)C1C(C)(C)C1(C)C at or above 50%?
Criterion met

Tell me whether Population Apoptotic (%) is at least 50% here: CC(C)C[C@H](CO)Nc1nc(S[C@@H](C)c2ccccc2)nc2nc(N)sc12
Criterion met

I'd appreciate it if you could say whether CC(F)(F)CN1CCOc2c(nn(-c3ccccc3Cl)c2-c2ccc(Cl)cc2)C1=O has Population Apoptotic (%) at least equal to 50%.
Criterion met

* * *

- Tested on: Fibroblast
- Experiment description: Multiplex assay against human fibroblast
- Type: toxicity, cell-based
- Cond: 12 h, 1 µM, compound concentration 1 uM, replicate 1
Parameter: Population Tubulin-Different-Phenotype (%)

- COc1cc(Nc2ncc3c(n2)-c2ccc(Cl)cc2C(c2c(F)cccc2OC)=NC3)ccc1C(=O)O: 23%
- CSc1nc(NC2CCCC2)c([N+](=O)[O-])c(NC2CCCC2)n1: 29%
- Cc1cc(NC(=O)NCCN2CCC(O)(Cc3ccccc3)CC2)c2ccccc2n1: 19%

Now look at this entry.
Find the recorded Population Tubulin-Different-Phenotype (%) belonging to COc1ccc2[nH]c(I)c(CCNC(C)=O)c2c1 and report it.
28%

* * *

- Tested on: U2OS
- Experiment description: Multiplex assay against U2OS
- Format: toxicity, cell-based
- Cond: human, 24 h, 10 µM, compound concentration 10 uM, replicate 1
Non-standard residues stand in square brackets, D forms with d. Residues, ends and D or L forms follow the SMILES beside them.
Parameter: Population Apoptotic (%)

Solved entries (count: 5):
* O=c1nc2[nH]c3ccccc3nc-2c(=O)[nH]1 | 78%
* CCCCCCNC(=O)Nc1ccc(S(=O)(=O)Nc2ccc(CCNC[C@H](O)COc3ccc(O)cc3)cc2)cc1 | 85%
* S=C(NCCCc1c[nH]cn1)NCCCN(Cc1ccc(Cl)c(Cl)c1)c1ccc(Br)cn1 | 62%
* Cc1nn(C)c2nc(NNC(=O)Nc3cc(Cl)nc(Cl)c3)cc(C(C)C)c12 | 78%
* CN1CCC(C(=O)c2cccc(NC(=O)c3c(F)cc(F)cc3F)n2)CC1 | 82%

Look up Population Apoptotic (%): Cc1cc(=O)n(C)c2cc(N3C(=O)CC[C@H](NS(=O)(=O)CC(C)C)[C@H]3c3ccc(Cl)cc3)ccc12
71%

Fill in: Population Apoptotic (%) of COc1cc2nc(N3CCN(C(=O)COc4c(OC)cccc4C(C)C)CC3)nc(N)c2cc1OC.Cl.Cl is ___
76%

Looking for the measured Population Apoptotic (%) of N[C@](CC1c2ccccc2Oc2ccccc21)(C(=O)O)[C@H]1C[C@@H]1C(=O)O , can you help?
80%

I'd like to know its Population Apoptotic (%). The compound in question is CC(C)C[C@@H]1NC(=O)[C@@H](C(C)C)NC(=O)[C@@H]2CCCN2C(=O)[C@@H](CC(=O)O)NC(=O)[C@@H](Cc2c[nH]c3ccccc23)NC1=O [BQ-123] (cyclo(L[dW][dD]P[dV]))
92%

Name the recorded Population Apoptotic (%) for Nc1nc(-c2ccco2)c2cnn(Cc3ccccc3F)c2n1 .
82%

* * *

- System: U2OS
- Experiment description: Multiplex assay against U2OS
- Format: toxicity, cell-based
- Cond: human, 12 h, 1 µM, compound concentration 1 uM, replicate 1
Non-standard residues stand in square brackets, D forms with d. Residues, ends and D or L forms follow the SMILES beside them.
Kindly apply the following: condition met if Population Pyknosed Nuclei (%) is less than 8%, condition not met in every other case.

Solved cases (5 shown):
* CCn1c(-c2nc3cc(C(=O)N4CCCC(N)C4)ccc3n2C)cc2ccccc21.Cl (stereo not given) | condition not met
* CCc1nn2c(C)cc(C)nc2c1Cc1ccc(-c2nnc(C3CCNCC3)o2)cc1 | condition not met
* CN1CCC(C(=O)c2cccc(NC(=O)c3c(F)cc(F)cc3F)n2)CC1 | condition not met
* CC(C)C[C@@H]1NC(=O)[C@@H](C(C)C)NC(=O)[C@@H]2CCCN2C(=O)[C@@H](CC(=O)O)NC(=O)[C@@H](Cc2c[nH]c3ccccc23)NC1=O [BQ-123] (cyclo(L[dW][dD]P[dV])) | condition not met
* COC(c1ccccc1)(c1ccccc1)[C@H](Oc1nc(C)cc(C)n1)C(=O)O | condition not met

Consider the molecule Cc1nn(C)c2nc(NNC(=O)Nc3cc(Cl)nc(Cl)c3)cc(C(C)C)c12 . Is its Population Pyknosed Nuclei (%) strictly less than 8%?
condition not met

Quick check: does OCCCNc1cc(-c2ccnc(Nc3cccc(Cl)c3)n2)ccn1 have Population Pyknosed Nuclei (%) under 8%?
condition not met

Problem: For the molecule CN1CCN2c3ccccc3Cc3ccccc3C2C1.Cl (stereo not given) [MIANSERIN HYDROCHLORIDE] , is Population Pyknosed Nuclei (%) under 8%?
condition met

* * *

- System: HEK-293T
- Experiment description: Multiplex assay against HEK293T
- Format: toxicity, cell-based
- Cond: human, 24 h, 1 µM, compound concentration 1 uM, replicate 2
Parameter: Population Mitochondria Different-Phenotype (%)
Respond numerically; units are % and should not be typed.

- CC(C)(O)C(=O)N1CCN(c2ccc(C(F)(F)F)c(C3=C(c4c[nH]c5ccccc45)C(=O)NC3=O)c2)CC1: 48
- CCn1c(-c2nc3cc(C(=O)N4CCCC(N)C4)ccc3n2C)cc2ccccc21.Cl (stereo not drawn): 49
- COc1ccc2c(c1OCc1ccccc1)C[C@@H](C(=O)O)N(C(=O)C(c1ccccc1)c1ccccc1)C2 [OLODANRIGAN]: 30
- Cc1c(Cc2ccc3ccccc3n2)c2cc(F)ccc2n1CC(=O)O [TIMAPIPRANT]: 38
- O=C(Nc1cc(-c2ccccc2)nn1-c1ccccc1F)c1ccc([N+](=O)[O-])cc1: 31

Next:
Lab note: need Population Mitochondria Different-Phenotype (%) with HEK-293T for entry Cc1cc(=O)n(C)c2cc(N3C(=O)CC[C@H](NS(=O)(=O)CC(C)C)[C@H]3c3ccc(Cl)cc3)ccc12 , please look it up.
42
